Below are compounds with their MIC as measured on Staphylococcus aureus.
Please give a number only; it is taken to be in µM.

q: For the compound CC[C@H](C)[C@H](NC(=O)[C@@H](NC(=O)[C@H](C)NC(=O)[C@H](Cc1ccccc1)NC(=O)[C@H](CC(C)C)NC(=O)CN)C(C)C)C(=O)N[C@@H](CCCCN)C(=O)N[C@@H](CCCCN)C(=O)N[C@H](C(=O)N[C@@H](C)C(=O)N[C@@H](CO)C(=O)N[C@H](C(=O)N[C@H](C(=O)N[C@@H](CCCCN)C(=O)NCC(=O)N[C@@H](CC(C)C)C(N)=O)[C@@H](C)CC)C(C)C)C(C)C , give its measured MIC value.
a: 7.3

q: For the compound CC[C@H](C)[C@H](NC(=O)[C@H](CC(C)C)NC(=O)[C@H](CCCCN)NC(=O)[C@@H](NC(=O)[C@@H](NC(=O)[C@H](Cc1cnc[nH]1)NC(=O)[C@@H]1CCCN1C(=O)[C@H](CC(C)C)NC(=O)[C@@H](NC(=O)[C@H](CCCCN)NC(=O)[C@H](C)NC(=O)[C@H](CC(C)C)NC(=O)[C@H](CC(C)C)NC(=O)[C@H](CO)NC(=O)[C@H](C)NC(=O)[C@H](CCSC)NC(=O)CN)C(C)C)C(C)C)C(C)C)C(=O)N[C@@H](CCCCN)C(N)=O , give its measured MIC value.
a: 3.7

q: For the compound CC[C@H](C)[C@H](NC(=O)[C@H](CO)NC(=O)CNC(=O)[C@H](C)NC(=O)[C@@H](NC(=O)[C@H](Cc1cnc[nH]1)NC(=O)CNC(=O)[C@H](C)NC(=O)[C@@H](NC(=O)[C@H](CCCCN)NC(=O)[C@H](CCCCN)NC(=O)[C@@H](NC(=O)[C@@H](NC(=O)[C@H](CC(=O)O)NC(=O)[C@H](Cc1ccccc1)NC(=O)[C@H](CC(C)C)NC(=O)CN)[C@@H](C)CC)C(C)C)[C@@H](C)CC)[C@@H](C)CC)C(N)=O , give its measured MIC value.
a: 28.8

Reference source: DBAASP
